The compounds listed here are annotated with their z-score.
# ASSAY_EXPLANATION: PSAC antagonists in infected red cells, primary screen, cell-based, P. falciparum Indochina, OD700, 18 h (AID 1157)
# CONDITION_NOTES: P. falciparum Indochina infected erythrocytes, osmotic lysis OD700, 18 h; higher = more signal, called active from +8 up or from −8 down
// response body must contain only the number

Guide cases for z-score, answers given:
CCN(CC)c1ccc(N2CC=CC34O[C@@H]5/C=C\CCC(C)OC(=O)C5[C@H]3C(=O)N(C(C)CO)[C@@H]4C2=O)cc1 (stereo partly specified): 0.304
COC(=O)C(CC#Cc1ccc2c(c1)[C@]1(C(=O)N2)[C@H](c2ccc(OCCO)cc2)N2[C@H](c3ccccc3)[C@H](c3ccccc3)OC(=O)[C@H]2[C@@H]1C(=O)N1CCN(c2ncccn2)CC1)C(=O)OC: 0.539
CN(C)C(=O)[C@@]1(Cc2ccccc2N=[N+]=[N-])N=C(c2ccc(OCCCO)cc2)O[C@H]1c1ccccc1: 1.94

z-score lookup needed for C=C(/C(=C/C[C@H](OC(=O)c1ccncc1)c1ccccc1OCCO)c1cnc2ccccc2c1)C(C)C , thanks.
0.553

COc1ccc([Si](C)(C)[C@@H]2[C@@H](CC(=O)N3Cc4ccccc4C[C@H]3CO)O[C@]3(C(=O)N(Cc4ccc(N5CCC5=O)cc4)c4ccccc43)[C@H]2C)cc1 , same question.
1.14

COCCOC(=O)N1C(=O)[C@@]2(c3cc(C#CC4(O)CCCCCC4)ccc31)[C@H](c1ccc(OCCO)cc1)N1[C@H](c3ccccc3)[C@H](c3ccccc3)OC(=O)[C@H]1[C@@H]2C(=O)Nc1nc2ccccc2s1 , same question.
1.53

====

# Tested on: Fibrinogen (Alexa647-labelled)
# ASSAY_EXPLANATION: fibrinogen binders on compound microarrays, profiling panel, artefact control for SMM control-protein annotation, biochemical, small-molecule microarray, 635/667 nm fluorescence (AID 1131);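 further: z-score merges 667 nm fluorescence with per-spot signal-to-noise over triplicate slides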
# CONDITION_NOTES: fibrinogen-A647 binding fluorescence, higher = more signal
The molecules listed here are annotated with their composite z-score.
// response body must contain only the number

COCCOC(=O)N1C(=O)[C@@]2(c3cc(C#CCC(C(=O)OC)C(=O)OC)ccc31)[C@H](c1ccc(O)cc1)N1[C@H](c3ccccc3)[C@H](c3ccccc3)OC(=O)[C@H]1[C@@H]2C(=O)NC[C@H](O)c1ccccc1: 0.8
O=C1C2C=CC(C(O)c3cccc(O)c3)N(Nc3ccccc3)C2C(=O)N1c1ccccc1 (stereo unspecified): 0.881
COCCOC(=O)N1C(=O)[C@@]2(c3cc(C#Cc4ccc(OC)cc4)ccc31)[C@H](c1ccc(OCCO)cc1)N1[C@H](c3ccccc3)[C@H](c3ccccc3)OC(=O)[C@H]1[C@@H]2C(=O)Nc1nc2ccccc2s1: 0.707
COc1ccc(C(=O)Nc2cccc(CN3C(=O)[C@@]4(O[C@@H](CC(=O)N(CCO)Cc5ccccc5)[C@H]([Si](C)(C)c5ccc(OC)cc5)[C@H]4C)c4ccccc43)c2)cc1: 0.193
CCCCC=C[C@@H](NC(=O)c1ccccc1)c1ccccc1: 0.987

Below: the item to evaluate.
composite z-score lookup needed for CCCNC(=O)[C@@]1(C)c2ccccc2C(=O)N(Cc2ccccc2)[C@H]1c1ccc(CO)cc1 , thanks.
-0.872

====

# Test system: Plasmodium falciparum Sir2 (PF13_0152, Sir2A)
# ASSAY_EXPLANATION: pfSir2 binders on small-molecule microarrays, primary screen, biochemical, small-molecule microarray, 635 nm fluorescence (AID 1098);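 further: score merges spot fluorescence intensity with its signal-to-noise ratio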
# CONDITION_NOTES: small-molecule microarray binding, fluorescence 635 nm; higher = more signal
The compounds listed here are annotated with their composite z-score.
// response body must contain only the number

C=CCNC(=O)[C@@H]1[C@H]2C(=O)O[C@H](c3ccccc3)[C@H](c3ccccc3)N2[C@H](c2ccc(OCCO)cc2)[C@@]12C(=O)N(C(=O)OCCOC)c1ccc(C#CCCO)cc12: 1.12
CN(C)C(=O)[C@@]1(Cc2ccccc2)COC(c2ccc(OCCCO)cc2)=N1: 0.429
CC1CC/C=C\[C@H]2OC34C=CCN(C(C)(C)C)C(=O)[C@H]3N(C(CO)C(C)C)C(=O)[C@@H]4C2C(=O)O1 (stereo not given in full): 0.337
CCOC(=O)C1=C[C@@H](c2ccccc2)N(S(=O)(=O)c2ccc(C)cc2)[C@H]1c1ccccc1: 0.394
CC(=O)NCCCC[C@@H]1NC(=O)[C@H]2C[C@@H](C(=O)NCCCCCNC(=O)CS)[C@@H](c3cccc(OCCO)c3)N2C1=O: 1.52
COCCOC(=O)N1C(=O)[C@@]2(c3cc(C#CCNC(N)=O)ccc31)[C@H](c1ccc(O)cc1)N1[C@H](c3ccccc3)[C@H](c3ccccc3)OC(=O)[C@H]1[C@@H]2C(N)=O: -0.583
CC(C)N1CC=CC23O[C@@H]4/C=C\CCCOC(=O)C4[C@H]2C(=O)N(CCCCCCO)[C@@H]3C1=O (stereo not given in full): 1.44
COc1ccc([Si](C)(C)[C@H]2[C@H](CCO)O[C@@]3(C(=O)N(Cc4ccccc4)c4ccc(N5CCOC5=O)cc43)[C@@H]2C)cc1: 0.821
O=C(NCCN1CCOCC1)[C@@H]1c2ccccc2C(=O)N(Cc2ccccc2)[C@H]1c1ccc(CO)cc1: 0.84
CN(C)C(=O)[C@@]1(Cc2ccccc2N=[N+]=[N-])N=C(c2ccc(OCCCO)cc2)O[C@H]1c1ccccc1: 1.36

Value wanted: composite z-score (Plasmodium falciparum Sir2 (PF13_0152, Sir2A)) of entry COc1cc(NN2C(C(O)c3ccc(I)cc3)C=CC3C(=O)N(c4ccccc4)C(=O)C32)cc(OC)c1OC (stereo not given)
0.913
